Molecular target: Glutaminyl-peptide cyclotransferase (Homo sapiens, UniProt Q16769)
Sequence (Q16769 whole entry): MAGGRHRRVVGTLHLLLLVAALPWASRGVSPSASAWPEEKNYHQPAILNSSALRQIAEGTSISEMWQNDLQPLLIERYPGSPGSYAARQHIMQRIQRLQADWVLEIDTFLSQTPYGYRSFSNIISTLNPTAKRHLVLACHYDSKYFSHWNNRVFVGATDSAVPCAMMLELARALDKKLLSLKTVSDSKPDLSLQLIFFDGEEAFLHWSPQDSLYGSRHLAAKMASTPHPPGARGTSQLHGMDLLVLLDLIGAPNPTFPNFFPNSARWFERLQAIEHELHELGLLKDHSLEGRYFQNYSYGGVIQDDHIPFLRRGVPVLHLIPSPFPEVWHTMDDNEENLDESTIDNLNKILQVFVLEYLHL
Test: Spectrophotometic Assay: Spectrophotometic Assay: This novel assay was used to determine the kinetic parameters for most of the QC substrates. QC activity was analyzed spectrophotometrically using a continuous method, that was derived by adapting a previous discontinuous assay (Bateman, R.C.J. 1989 J Neurosci Methods 30, 23-28).
Examples of molecules with documented IC50 follow.

Here are 5 molecules together with their reported answers.
# molecule, quantity, obs.value
measured = [
    ("O=C1NCC(c2ccc(OCCN3CCOCC3)cc2)N1c1ccc2nc[nH]c2c1 (stereo unspecified)", "IC50", "< 10 µM"),
    ("O=C1OCC(c2ccc(C3CCC(O)CC3)cc2)N1c1ccc2[nH]cnc2c1 (stereo unspecified)", "IC50", "< 10 µM"),
    ("Cc1nc2ccc(N3C(=O)OC[C@@H]3c3ccccc3)cc2[nH]1", "IC50", "< 10 µM"),
    ("O=C1NCC(c2ccc(F)cc2)N1c1ccc2[nH]cnc2c1 (stereo unspecified)", "IC50", "< 10 µM"),
    ("O=C1NCC(c2cccc(Cl)c2Cl)N1c1ccc2nc[nH]c2c1 (stereo unspecified)", "IC50", "< 10 µM"),
]

Next molecule, please.
Input line: Give the measured IC50 of O=C1CCC(c2ccc3c(c2)OCCO3)N1c1ccc2[nH]cnc2c1 (stereo unspecified) .
Output line: < 10 µM

Reference for the values: ChEMBL document CHEMBL3638480
